molecular target: human CLK1 (Homo sapiens); construct: Recombinant human CLK1 (129-end); GST (N); purchased SignalChem C57-11G; host or cells: Sf9 insect cells; test: CLK1 enzyme assay (ADP-Glo); assay type: biochemical; details: ADP-Glo, ATP 10 μM; read-out: CLK1 IC50
Sequence (P49759 129-484 limits assumed): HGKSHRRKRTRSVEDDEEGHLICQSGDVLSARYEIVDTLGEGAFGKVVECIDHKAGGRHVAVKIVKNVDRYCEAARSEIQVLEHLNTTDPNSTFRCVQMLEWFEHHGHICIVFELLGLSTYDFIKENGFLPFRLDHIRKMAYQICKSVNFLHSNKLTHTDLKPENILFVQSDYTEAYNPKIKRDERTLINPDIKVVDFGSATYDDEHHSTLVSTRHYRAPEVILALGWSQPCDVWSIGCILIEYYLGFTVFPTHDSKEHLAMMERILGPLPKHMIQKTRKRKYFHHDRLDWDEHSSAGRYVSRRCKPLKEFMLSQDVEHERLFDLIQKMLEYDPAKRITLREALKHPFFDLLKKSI
pIC50: −log10 of the molar value.
Measured pIC50, listed per entry for reference.

Known results for compounds:
- CN(C1=N/C(=C\c2ccc3ncsc3c2)C(=O)N1)c1ccc2c(c1)ncn2C: 5.00 to 6.00
- O=C1NC(Nc2ccccc2)=N/C1=C\c1cncs1: < 5.00
- CCN(C1=N/C(=C\c2ccc3c(c2)OCO3)C(=O)N1)c1ccccc1: 6.00 to 7.00
- O=C(O)CCN(C1=N/C(=C\c2ccc3c(c2)OCO3)C(=O)N1)c1ccccc1: 5.00 to 6.00

Now take the following compound into account.
For this compound ( "CN(C1=N/C(=C\c2ccc3c(c2)OCO3)C(=O)N1)c1ccc(N)cc1" ), measured pIC50 is 5.00 to 6.00

----------
Measured pIC50, listed per entry for reference.
target: human DYRK1A (Homo sapiens); construct: Recombinant full-length DYRK1A (expressed in E. Coli cells with an N-terminal GST tag); GST (N); purchased SignalChem D09-10G; host or cells: E. coli; experiment: DYRK1A enzyme assay (ADP-Glo); format: biochemical; settings: ADP-Glo, ATP 60 μM; read-out: DYRK1A IC50
pIC50: −log10 of the molar value.

Known results for compounds:
* O=C1NC(Nc2ccccc2)=N/C1=C\c1ccc2sccc2c1 [Example 72] | < 5.00
* O=C1NC(Nc2ccc3ncsc3c2)=NC1Cc1ccc2ncsc2c1 (centres unmarked) [Example 102] | 5.00 to 6.00
* Cn1ncc2cc(/C=C3\N=C(Nc4ccc5ncsc5c4)NC3=O)ccc21 [Example 78] | < 5.00

For this compound ( Cn1ncc2ccc(/C=C3\N=C(Nc4ccc5ncsc5c4)NC3=O)cc21 [Example 80] ), measured pIC50 is < 5.00

For this compound ( CN(C1=N/C(=C\c2ccc3c(c2)OCCO3)C(=O)N1)c1ccccc1 [Example 8] ), measured pIC50 is 5.00 to 6.00

----------
Measured IC50, listed per entry for reference.
target: human HIPK2 (Homo sapiens); construct: Recombinant human HIPK2 (1-640); GST (N); purchased SignalChem H04-11BG; host or cells: Sf9 insect cells; test: HIPK2 enzyme assay (ADP-Glo); assay type: biochemical; details: ADP-Glo, ATP 5 μM; read-out: HIPK2 IC50
Sequence (Q9H2X6 1-640): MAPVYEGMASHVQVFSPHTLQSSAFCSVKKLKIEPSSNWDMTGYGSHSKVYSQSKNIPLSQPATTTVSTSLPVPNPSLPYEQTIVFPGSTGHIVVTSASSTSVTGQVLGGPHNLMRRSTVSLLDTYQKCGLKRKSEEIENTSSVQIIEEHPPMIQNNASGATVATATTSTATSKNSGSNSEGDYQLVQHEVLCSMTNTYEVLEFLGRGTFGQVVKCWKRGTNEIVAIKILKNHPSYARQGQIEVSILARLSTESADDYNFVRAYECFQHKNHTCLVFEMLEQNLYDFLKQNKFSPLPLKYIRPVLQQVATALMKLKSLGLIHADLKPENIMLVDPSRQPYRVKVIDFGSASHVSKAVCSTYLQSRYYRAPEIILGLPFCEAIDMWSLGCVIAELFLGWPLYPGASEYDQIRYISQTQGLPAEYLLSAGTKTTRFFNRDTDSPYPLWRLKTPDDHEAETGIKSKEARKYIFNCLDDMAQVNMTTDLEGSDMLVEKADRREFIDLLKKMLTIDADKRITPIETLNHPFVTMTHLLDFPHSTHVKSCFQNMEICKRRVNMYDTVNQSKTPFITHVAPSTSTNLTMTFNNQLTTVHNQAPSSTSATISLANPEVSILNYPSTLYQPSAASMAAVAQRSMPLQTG

Known results for compounds:
- CN(C1=N/C(=C\c2ccc3[nH]cnc3c2)C(=O)N1)c1ccccc1: > 10 µM
- CN(C1=N/C(=C\c2ccc3ncsc3c2)C(=O)N1)c1ccccc1: 1 to 10 µM

For this compound ( "CN(C1=N/C(=C\c2ccc3c(c2)OCO3)C(=O)N1)c1ccc(N)cc1" ), measured IC50 is > 10 µM

For this compound ( "CN1C(=O)/C(=C/c2ccc3c(c2)OCO3)N=C1N(C)c1ccccc1" ), measured IC50 is > 10 µM

----------
target: human CIT (Homo sapiens, UniProt O14578); construct: Recombinant human CIT (1-499); GST (N); purchased SignalChem C52-11G; host or cells: Sf9 insect cells; test: CIT enzyme assay (ADP-Glo); assay type: biochemical; conditions: ADP-Glo, ATP 5 μM; read-out: CIT IC50
Sequence (O14578 1-499): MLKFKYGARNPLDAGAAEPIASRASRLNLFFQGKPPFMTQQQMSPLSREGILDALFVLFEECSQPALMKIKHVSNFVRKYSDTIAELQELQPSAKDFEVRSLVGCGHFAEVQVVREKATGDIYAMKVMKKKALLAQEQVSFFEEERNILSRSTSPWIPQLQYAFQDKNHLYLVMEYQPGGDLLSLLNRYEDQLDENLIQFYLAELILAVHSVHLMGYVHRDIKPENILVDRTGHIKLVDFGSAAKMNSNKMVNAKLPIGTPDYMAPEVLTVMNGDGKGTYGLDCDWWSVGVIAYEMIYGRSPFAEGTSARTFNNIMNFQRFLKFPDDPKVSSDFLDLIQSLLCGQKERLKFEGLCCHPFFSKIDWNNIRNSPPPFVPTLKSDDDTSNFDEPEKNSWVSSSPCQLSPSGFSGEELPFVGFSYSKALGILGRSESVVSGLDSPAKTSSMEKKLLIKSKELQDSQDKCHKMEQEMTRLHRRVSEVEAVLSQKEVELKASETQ
Measurement Name: IC50

Known results for compounds:
* CN(CC1CC1)C1=N/C(=C\c2ccc3c(c2)OCO3)C(=O)N1 | > 10000 nM
* O=C1NC(Nc2ccccc2)=N/C1=C\c1ccc2ncsc2c1 | 100 to 1000 nM
* CN(C1=N/C(=C\c2ccc3c(c2)OCO3)C(=O)N1)c1ccc(N)cc1 | > 10000 nM
* CN(C1=N/C(=C\c2ccc3ncsc3c2)C(=O)N1)c1ccc2ncsc2c1 | 100 to 1000 nM
* COc1ccccc1N(C)C1=N/C(=C\c2ccc3c(c2)OCO3)C(=O)N1 | > 10000 nM

Now take the following compound into account.
For this compound ( "CN(C1=N/C(=C\c2ccc3c(c2)OCO3)C(=O)N1)c1ccccc1" ), measured IC50 is > 10000 nM
